# Test system: PPARg:RXRa 90nM:30nM, anti-RXR (NR concentration 90 nM, RXRa partner concentration 30 nM)
# experimental protocol: PBM binding z-score (relative to random genomic background probes); higher = stronger binding; sequences stand for … in GC…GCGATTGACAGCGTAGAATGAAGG
experimental readout: PBM binding z-score
Answer using only a numeral; do not append any unit.

> print(dat)
                             seq.text  experimental.readout  meas.value
1  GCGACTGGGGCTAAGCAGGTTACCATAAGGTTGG   PBM binding z-score       -0.68
2  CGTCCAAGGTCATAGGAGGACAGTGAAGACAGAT   PBM binding z-score        3.56
3  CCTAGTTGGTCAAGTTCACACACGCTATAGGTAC   PBM binding z-score        1.16
4  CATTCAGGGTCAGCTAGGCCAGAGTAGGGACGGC   PBM binding z-score        2.81
5  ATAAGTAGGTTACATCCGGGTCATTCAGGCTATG   PBM binding z-score        4.37

Then this sequence:
*Q* Which PBM binding z-score reading was recorded for the sequence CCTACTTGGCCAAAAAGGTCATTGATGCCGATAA ?
*A* 1.87

* * *

# Tested on: VDR homodimer (NR concentration 270 nM)
# experimental protocol: PBM binding z-score (relative to random genomic background probes); higher = stronger binding; sequences stand for … in GC…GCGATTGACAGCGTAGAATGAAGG
Assign class by PBM binding z-score: not lower than 0.5 means condition met; lower than 0.5 means condition not met.

Please review the following examples before continuing.
> print(dat)
                             seq.text              label
1  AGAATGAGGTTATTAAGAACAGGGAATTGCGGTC      condition met
2  TTACCAACGTGAAGGTCGTTGATCCCTCTGTAGA      condition met
3  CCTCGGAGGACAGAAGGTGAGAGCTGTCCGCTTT  condition not met
4  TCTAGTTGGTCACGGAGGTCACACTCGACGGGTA      condition met
5  TCTCGGAGGATACGAAGGTCAGAGCTTTCCAGAG  condition not met
6  GTACCAAGGTGAATAGGTCGTTGAGGAGTAGGCG      condition met
7  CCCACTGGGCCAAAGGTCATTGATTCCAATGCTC      condition met
8  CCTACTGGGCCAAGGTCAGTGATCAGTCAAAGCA      condition met

*Q* Test whether the sequence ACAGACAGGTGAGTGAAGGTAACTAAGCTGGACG records PBM binding z-score of 0.5 or higher.
*A* condition not met

*Q* API: above_or_equal(metric=PBM binding z-score, cutoff=0.5) for item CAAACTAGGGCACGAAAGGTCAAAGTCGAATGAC
*A* condition met

*Q* Reported PBM binding z-score reaches at least 0.5 for ACAGACAGGTAAGTGAAGGTAACTCAGCTGGACG ?
*A* condition not met

*Q* Tell me whether PBM binding z-score is at least 0.5 here: CCTGTTAGTTGACCATAAGGGCAACCGAAGCTCG
*A* condition met

* * *

# Test system: LXRa:RXRa (NR concentration 270 nM, RXRa partner concentration 90 nM)
# experimental protocol: PBM binding z-score (relative to random genomic background probes); higher = stronger binding; sequences stand for … in GC…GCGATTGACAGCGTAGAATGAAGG
Binned PBM binding z-score; ranges: low group = under 0.9, middle group = from 0.9 up to 5, high group = 5 and over

> print(dat)
                             seq.text         label
1  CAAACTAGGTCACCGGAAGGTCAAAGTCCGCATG    high group
2  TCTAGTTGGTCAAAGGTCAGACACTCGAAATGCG  middle group
3  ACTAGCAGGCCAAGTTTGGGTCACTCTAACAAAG     low group
4  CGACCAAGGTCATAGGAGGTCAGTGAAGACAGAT    high group

*Q* Record TGAATGAGGTTATAAGATCTGGGAACGTTGCAAA — which class?
*A* middle group

* * *

# System: THRa:RXRa (NR concentration 90 nM, RXRa partner concentration 90 nM)
# experimental protocol: PBM binding z-score (relative to random genomic background probes); higher = stronger binding; sequences stand for … in GC…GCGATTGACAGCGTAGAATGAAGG
Respond with true for PBM binding z-score values of 1 and above, false for values below.

> print(dat)
                             seq.text                       experimental.system  label
1  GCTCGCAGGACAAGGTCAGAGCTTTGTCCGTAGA  THRa:RXRa (NR concentration 90 nM, RXRa partner concentration 90 nM)   true
2  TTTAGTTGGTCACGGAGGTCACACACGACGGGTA  THRa:RXRa (NR concentration 90 nM, RXRa partner concentration 90 nM)   true
3  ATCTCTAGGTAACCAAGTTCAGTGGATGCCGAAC  THRa:RXRa (NR concentration 90 nM, RXRa partner concentration 90 nM)   true

*Q* Check this sequence for PBM binding z-score at or above 1: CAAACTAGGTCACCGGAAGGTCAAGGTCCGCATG
*A* true

*Q* Please check the record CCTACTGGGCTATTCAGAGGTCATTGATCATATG and state if its PBM binding z-score is at or above 1.
*A* true

*Q* Hi team, for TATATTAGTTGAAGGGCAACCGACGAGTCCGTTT , is the recorded PBM binding z-score at or above 1?
*A* false

*Q* hey, is PBM binding z-score for this one >= 1? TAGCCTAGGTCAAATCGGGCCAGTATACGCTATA
*A* true

*Q* Record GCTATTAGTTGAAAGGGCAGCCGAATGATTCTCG ; criterion: PBM binding z-score no lower than 1. Met?
*A* false

*Q* Hello, I need to know if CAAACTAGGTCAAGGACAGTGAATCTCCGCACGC has measured PBM binding z-score not below 1. Thanks!
*A* true

*Q* Dear colleague, could you confirm whether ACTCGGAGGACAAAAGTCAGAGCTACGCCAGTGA has PBM binding z-score at or above 1?
*A* false

*Q* Assess whether reported PBM binding z-score for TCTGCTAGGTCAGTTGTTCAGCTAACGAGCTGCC sits at 1 or higher.
*A* true

*Q* Check the entry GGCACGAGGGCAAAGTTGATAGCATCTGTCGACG : does PBM binding z-score equal or exceed 1?
*A* true

* * *

# Tested on: PPARg:RXRa 90nM:30nM, anti-RXR (NR concentration 90 nM, RXRa partner concentration 30 nM)
# experimental protocol: PBM binding z-score (relative to random genomic background probes); higher = stronger binding; sequences stand for … in GC…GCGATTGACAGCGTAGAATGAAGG
Label MET for high-side PBM binding z-score (at or above 2) and NOT MET for low-side PBM binding z-score (below it).

> print(dat)
                             seq.text    label
1  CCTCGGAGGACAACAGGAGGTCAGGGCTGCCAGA  NOT MET
2  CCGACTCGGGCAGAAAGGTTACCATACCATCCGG  NOT MET

*Q* Quick check, PBM binding z-score >= 2? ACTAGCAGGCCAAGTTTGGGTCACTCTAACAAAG
*A* NOT MET

*Q* Is PBM binding z-score at least 2? Consider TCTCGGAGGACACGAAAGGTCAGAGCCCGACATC
*A* MET

*Q* Does PBM binding z-score meet or surpass 2 for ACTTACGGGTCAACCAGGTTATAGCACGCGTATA ?
*A* MET

*Q* Item TAGCCTAGGTCATGCGGGCCAGTAGAGTGTCGGC with PBM binding z-score of 2 or above?
*A* NOT MET

*Q* Determine whether measured PBM binding z-score meets or exceeds 2 for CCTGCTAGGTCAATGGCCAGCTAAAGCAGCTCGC
*A* NOT MET

*Q* // inclusive: PBM binding z-score at least 2? input: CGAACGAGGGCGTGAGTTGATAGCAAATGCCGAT
*A* NOT MET

*Q* Hi team, for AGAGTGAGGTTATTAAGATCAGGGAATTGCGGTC , is the recorded PBM binding z-score at or above 2?
*A* NOT MET

*Q* Confirm if PBM binding z-score reported for the sequence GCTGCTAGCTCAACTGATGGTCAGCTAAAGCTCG is 2 or above.
*A* NOT MET

*Q* # check: PBM binding z-score of CCTAGCAGGCCAGAGTCACTCAAGCATTTCGCTT is greater than or equal to 2
*A* NOT MET

*Q* Hi team, for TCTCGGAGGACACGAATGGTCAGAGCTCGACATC , is the recorded PBM binding z-score at or above 2?
*A* NOT MET

*Q* Item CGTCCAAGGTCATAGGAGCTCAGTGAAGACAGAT with PBM binding z-score of 2 or above?
*A* MET

*Q* Check this sequence for PBM binding z-score at or above 2: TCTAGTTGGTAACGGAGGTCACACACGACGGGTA
*A* MET

*Q* hey, is PBM binding z-score for this one >= 2? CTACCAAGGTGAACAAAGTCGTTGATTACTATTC
*A* NOT MET

*Q* Can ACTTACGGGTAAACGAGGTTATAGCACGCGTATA be said to have PBM binding z-score at or above 2?
*A* NOT MET

*Q* Hi, just wondering whether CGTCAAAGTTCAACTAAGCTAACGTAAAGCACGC shows PBM binding z-score of 2 or higher.
*A* MET
